target: LcrF (VirF) (Yersinia pestis, UniProt P28808); experiment: biochemical; type: binding, Y. pseudotuberculosis; settings: EC50 for inhibition of LcrF(VirF)-DNA binding
Sequence (P28808 whole entry, looked up): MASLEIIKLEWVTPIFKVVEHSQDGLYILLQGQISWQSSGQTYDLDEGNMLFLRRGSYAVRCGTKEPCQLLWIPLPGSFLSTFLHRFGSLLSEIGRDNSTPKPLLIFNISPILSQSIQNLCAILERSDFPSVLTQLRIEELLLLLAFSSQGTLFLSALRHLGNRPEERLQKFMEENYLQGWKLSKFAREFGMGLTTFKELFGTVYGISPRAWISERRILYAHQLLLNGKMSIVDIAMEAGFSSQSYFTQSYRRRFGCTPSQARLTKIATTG
pEC50: −log10 of the molar value.
Record form. Attribute: pEC50. Fill in for each entry.

Give pEC50 for each listed item.
1. C/C(=C\c1ccccc1)C(=O)Nc1ccc(-c2nc3ccc([N+](=O)[O-])cc3n2O)cc1
2. O=C(/C=C/c1ccc(-n2cncn2)cc1)Nc1ccc(-c2nc3ccc([N+](=O)[O-])cc3n2O)cc1
3. O=C(Nc1ccc(-c2nc3ccc([N+](=O)[O-])cc3n2O)cc1)c1ccc2c(c1)CCCC2=O
4. CC(=O)c1ccc(C(=O)Nc2ccc(-c3nc4ccc([N+](=O)[O-])cc4n3O)cc2F)cc1

["< 4.60", "< 4.60", "< 4.60", "4.60 to 5.00"]
